# procedure-details: Inhibition of bovine brain tubulin assembly after 20 mins
# Parameters: species or system Bos taurus
Decide using IC50 alone. Strictly below 5 µM: True. Equal to or above 5 µM: False.

Past entries and their recorded results:
- compound: "COc1nc2sccn2c1/C=C1/C(=O)Nc2ccccc21"
  class-assignment: "True"
- compound: "COc1ccc2c(c1)/C(=C\\c1c(-c3ccccn3)nc3sccn13)C(=O)N2"
  class-assignment: "False"
- compound: "COc1ccc2c(c1)C(=Cc1c(OC)nc3sccn13)C(=O)N2 (mixture of isomers)"
  class-assignment: "True"
- compound: "O=C1Nc2cc(Cl)ccc2C1=Cc1c(-c2ccccn2)nc2sccn12 (mixture of isomers)"
  class-assignment: "False"
- compound: "COc1ccc2c(c1)C(=Cc1c(OC)nc3sccn13)C(=O)N2C (mixture of isomers)"
  class-assignment: "True"
- compound: "COc1nc2sccn2c1/C=C1/C(=O)Nc2cc(Cl)ccc21"
  class-assignment: "False"
- compound: "Cc1nn2c(/C=C3/C(=O)Nc4c3ccc3ccccc43)c(C)nc2s1"
  class-assignment: "False"
- compound: "O=C1Nc2ccc(Cl)cc2C1=Cc1c(-c2ccccn2)nc2sccn12 (mixture of isomers)"
  class-assignment: "False"

Say whether its IC50 is strictly beneath 5 µM. Entry: `Cc1cn2c(/C=C3/C(=O)Nc4c3ccc3ccccc43)c(C)nc2s1` False

====

We begin with a simple list: items and their reported LC50.
# procedure-details: Cytotoxicity against human breast cancer cells after 48 hrs
# Assay type: functional
# recorded-conditions: Cancer cell lines
Express the result in µM but write the number alone.

Illustrative cases are given below, each with its answer.
- compound: "O=C1Nc2ccc(Cl)cc2C1=Cc1c(-c2ccccn2)nc2sccn12 (mixture of isomers)"
  meas-value: 42.7
- compound: "O=C1Nc2cc(Cl)ccc2C1=Cc1c(-c2ccccn2)nc2sccn12 (mixture of isomers)"
  meas-value: 46.8
- compound: "COc1ccc2c(c1)/C(=C\\c1c(-c3ccccn3)nc3sccn13)C(=O)N2"
  meas-value: 46.8
- compound: "Cc1nn2c(/C=C3/C(=O)Nc4c3ccc3ccccc43)c(C)nc2s1"
  meas-value: 75.9
- compound: "COc1nc2sccn2c1/C=C1/C(=O)Nc2ccccc21"
  meas-value: 91.2
- compound: "COc1nc2sccn2c1/C=C1/C(=O)Nc2cccc(Cl)c21"
  meas-value: 93.3

Then this compound:
Quick one: LC50 of `Cc1cn2c(/C=C3/C(=O)Nc4c3ccc3ccccc43)c(C)nc2s1` ? 50.1

====

# procedure-details: Cytotoxicity against human ovarian cancer cells after 48 hrs
# Format: functional
# recorded-conditions: Cancer cell lines
Label rule, in plain words: TGI of 40 µM and up is YES, under 40 µM is NO.

Past entries and their recorded results:
- compound: "COc1cc(-c2nc3sc(C)cn3c2/C=C2/C(=O)Nc3ccccc32)c(Br)c(OC)c1OC"
  class-assignment: "YES"
- compound: "Cc1ccc(-c2nc3sc(C)cn3c2/C=C2/C(=O)N(C)c3ccccc32)cc1"
  class-assignment: "YES"
- compound: "Cc1nn2c(/C=C3/C(=O)Nc4c3ccc3ccccc43)c(C)nc2s1"
  class-assignment: "NO"

Confirm if TGI reported for the compound COc1ccc2c(c1)C(=Cc1c(OC)nc3sccn13)C(=O)N2 (mixture of isomers) is 40 µM or above. NO

Confirm if TGI reported for the compound `O=C1Nc2ccccc2/C1=C\c1c(-c2ccccn2)nc2sccn12` is 40 µM or above. NO

Confirm if TGI reported for the compound `COc1nc2sccn2c1/C=C1/C(=O)Nc2cc(Cl)ccc21` is 40 µM or above. NO
